target under test: human GnRH receptor (Homo sapiens)
Construct: expressed in transfected cells; host or cells: HEK 293 (hGnRH-R/293, from Dr. Stuart Sealfon)
Sequence (P30968 1-328): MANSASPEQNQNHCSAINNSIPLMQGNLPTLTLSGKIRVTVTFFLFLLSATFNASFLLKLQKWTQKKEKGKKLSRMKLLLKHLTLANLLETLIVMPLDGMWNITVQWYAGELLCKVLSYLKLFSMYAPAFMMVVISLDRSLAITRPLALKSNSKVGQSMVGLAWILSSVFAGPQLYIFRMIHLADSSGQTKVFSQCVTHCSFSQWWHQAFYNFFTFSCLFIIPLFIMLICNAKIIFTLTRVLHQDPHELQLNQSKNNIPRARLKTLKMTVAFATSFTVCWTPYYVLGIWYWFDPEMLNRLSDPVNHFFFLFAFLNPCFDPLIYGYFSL
protocol: Radioligand binding, 125I-GnRH-A displacement, membranes of HEK 293 cells with human GnRH receptor
condition context: 1 h, substrate remaining; 1 uM compound; closer to zero = closer to 100% inhibition; read-out: S%R 1 uM hGnRHR
measured property: remaining activity at 1 µM (%)
Reply numerically in %, unit not repeated.

* Cc1cc2c(cc1Cc1ccc(C(=O)NCc3ccccc3Oc3ccccc3CO)o1)C(C)(C)CCC2(C)C [Compound 421] | 48
* Cc1cc2c(cc1Cc1ccc(C(=O)NCCc3cccc(F)c3)o1)C(C)(C)CCC2(C)C [Compound 437] | 40

Next compound, please.
IN: // remaining activity at 1 µM lookup, key: Cc1cc2c(cc1Cc1ccc(C(=O)NCc3cccc(F)c3)o1)C(C)(C)CCC2(C)C [Compound 443]
OUT: 19

* * *

target under test: human GnRH receptor (Homo sapiens, UniProt P30968)
Construct: expressed in transfected cells; host or cells: HEK 293 (hGnRH-R/293, from Dr. Stuart Sealfon)
Sequence (P30968 1-328): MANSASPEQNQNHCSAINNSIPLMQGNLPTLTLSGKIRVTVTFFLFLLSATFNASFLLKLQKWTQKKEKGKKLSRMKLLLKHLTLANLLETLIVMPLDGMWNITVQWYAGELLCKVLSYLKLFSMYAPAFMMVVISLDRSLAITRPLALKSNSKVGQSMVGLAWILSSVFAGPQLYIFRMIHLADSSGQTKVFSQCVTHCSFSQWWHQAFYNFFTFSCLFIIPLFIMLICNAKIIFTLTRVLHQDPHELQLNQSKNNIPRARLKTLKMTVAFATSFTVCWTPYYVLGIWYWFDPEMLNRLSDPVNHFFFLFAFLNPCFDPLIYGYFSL
protocol: Radioligand binding, 125I-GnRH-A displacement, membranes of HEK 293 cells with human GnRH receptor
condition context: 1 h, repeat of % Inhib. at 1 uM; read-out: Repeats @ 1 uM hGnRH
A collection of compounds and their measured inhibition at 1 µM
Reply numerically in %, unit not repeated.

• Cc1cc2c(cc1Cc1ccc(C(=O)NC3CCCc4ccccc43)o1)C(C)(C)CCC2(C)C (stereo not drawn) [drawing 1127] = 27

IN: Notebook entry, human GnRH receptor (Homo sapiens, UniProt P30968) assay: inhibition at 1 µM of `Cc1cc2c(cc1Cc1ccc(C(=O)N3CCN(c4ccc(C(F)(F)F)cn4)CC3)o1)C(C)(C)CCC2(C)C` = ?
OUT: -7

IN: Notebook entry, human GnRH receptor (Homo sapiens, UniProt P30968) assay: inhibition at 1 µM of Cc1cc2c(cc1Cc1ccc(C(=O)NCc3ccc4c(c3)OCO4)o1)C(C)(C)CCC2(C)C [drawing 992] = ?
OUT: 92

IN: Notebook entry, human GnRH receptor (Homo sapiens, UniProt P30968) assay: inhibition at 1 µM of `Cc1cc2c(cc1Cc1ccc(C(=O)N(CCO)Cc3ccccc3)o1)C(C)(C)CCC2(C)C` = ?
OUT: -5

IN: Notebook entry, human GnRH receptor (Homo sapiens, UniProt P30968) assay: inhibition at 1 µM of Cc1cc2c(cc1Cc1ccc(C(=O)NCc3cccc4ccccc34)o1)C(C)(C)CCC2(C)C [drawing 1120] = ?
OUT: 71

IN: Notebook entry, human GnRH receptor (Homo sapiens, UniProt P30968) assay: inhibition at 1 µM of Cc1cc2c(cc1Cc1ccc(C(=O)NCCCNCCCCNCCCN)o1)C(C)(C)CCC2(C)C [drawing 1034] = ?
OUT: -26

IN: Notebook entry, human GnRH receptor (Homo sapiens, UniProt P30968) assay: inhibition at 1 µM of Cc1cc2c(cc1Cc1ccc(C(=O)N(C)C(C)Cc3ccccc3)o1)C(C)(C)CCC2(C)C (stereo not drawn) = ?
OUT: 17

IN: Notebook entry, human GnRH receptor (Homo sapiens, UniProt P30968) assay: inhibition at 1 µM of Cc1cc2c(cc1Cc1ccc(C(=O)NCc3ccccn3)o1)C(C)(C)CCC2(C)C [drawing 984] = ?
OUT: 67

IN: Notebook entry, human GnRH receptor (Homo sapiens, UniProt P30968) assay: inhibition at 1 µM of Cc1cc2c(cc1Cc1ccc(C(=O)NC3CCCC(Nc4ccnc(NCC5CCCO5)n4)C3)o1)C(C)(C)CCC2(C)C (stereo not drawn) [drawing 1045] = ?
OUT: 25
